system name: protein farnesyltransferase (Rattus norvegicus, UniProt Q02293+Q04631)
Construct: Rat brain protein farnesyltransferase activity is measured; from tissue; host or cells: rat brain; purified according to Reiss et al., Cell 62:81-88 (1990), steps one through three
assay text: in vitro inhibition of protein farnesyltransferase (scintillation proximity assay, biotin-K Ras B fragment)
Type: biochemical
study conditions: at 1 × 10^-7 M
measured attribute: % inhibition of farnesyltransferase (%)
Kindly answer with a numeric value in %, unit omitted.

Supply measured % inhibition of farnesyltransferase of CSCC[C@H](NC(=O)c1ccc(COC2CCC(NC(=O)OC(C)(C)C)CC2)cc1-c1ccccc1C)C(=O)[O-].[Li+] (stereo partly shown) in your reply.
60

Entry "CSCC[C@H](NC(=O)c1ccc(CCc2cccc(Oc3ccccc3)c2)cc1-c1ccccc1C)C(=O)[O-].[Li+]" needs its % inhibition of farnesyltransferase filled in; supply it.
92

Look up % inhibition of farnesyltransferase of "CSCC[C@H](NC(=O)c1ccc(COCc2cccc(C)c2)cc1-c1ccccc1C)C(=O)[O-].[Li+]" and report it.
90

Identify measured % inhibition of farnesyltransferase associated with "CSCC[C@H](NC(=O)c1ccc(COCc2cccc3ccccc23)cc1-c1ccccc1C)C(=O)[O-].[Li+]"
96

Input "CSCC[C@H](NC(=O)c1ccc(COCCCCc2ccccc2)cc1-c1ccccc1C)C(=O)O" , output reported % inhibition of farnesyltransferase.
92

Find the measured % inhibition of farnesyltransferase of "CSCC[C@H](NC(=O)c1ccc(CN2CCC[C@@H]2COCc2ccccc2)cc1-c1ccccc1C)C(=O)O" and report it.
90

Give a short answer stating reported % inhibition of farnesyltransferase for "CSCC[C@H](NC(=O)c1ccc(COCCCCC2CCCCC2)cc1-c1ccccc1C)C(=O)O" .
93

====

inhibition at 0.1 µM overview
system name: protein farnesyltransferase (Rattus norvegicus, UniProt Q02293+Q04631)
Construct: Rat brain protein farnesyltransferase activity is measured; from tissue; host or cells: rat brain; purified according to Reiss et al., Cell 62:81-88 (1990), steps one through three
assay text: in vitro inhibition of protein farnesyltransferase (scintillation proximity assay, biotin-K Ras B fragment)
Assay type: biochemical
study conditions: at 1 × 10^-7 M; read-out: % inhibition of farnesyltransferase
Structures can show the parent of a compound that is named as a salt.
Form entry: value (%) — number only.

> print(dat)
                                   compound  observed.result
1  COc1ccccc1N(Cc1ccccc1)Cc1ccc(C(=O)N[C@@H](CCSC)C(=O)O)c(-c2ccccc2C)c1 [Example 839, lithium salt]               63
2  CSCC[C@H](NC(=O)c1ccc(CNC(CC2CCCCC2)CC2CCCCC2)cc1-c1ccccc1C)C(=O)O [Example 524, lithium salt]               99
3  CCSC[C@H](CC(C)C)N(C)Cc1ccc(C(=O)N[C@@H](CCSC)C(=O)O)c(-c2ccccc2C)c1               88

Next compound, inhibition at 0.1 µM to be filled in.
Specify reported inhibition at 0.1 µM for the compound shown: CSCC[C@H](NC(=O)c1ccc(CNC(Cc2ccccc2)Cc2ccccc2)cc1-c1ccccc1C)C(=O)O [Example 523, lithium salt]
97

====

Recorded inhibition at 10 µM by entry
system name: protein farnesyltransferase (Rattus norvegicus, UniProt Q02293+Q04631)
Construct: Rat brain protein farnesyltransferase activity is measured; from tissue; host or cells: rat brain; purified according to Reiss et al., Cell 62:81-88 (1990), steps one through three
assay text: in vitro inhibition of protein farnesyltransferase (scintillation proximity assay, biotin-K Ras B fragment)
Type: biochemical
study conditions: at 1 × 10^-5 M
Give just the number in %; leave the unit off.

> print(dat)
                                   compound   measured.attribute  observed.result
1  CSCC[C@H](NC(=O)c1ccc(CNc2cccc(CO)c2)cc1-c1ccccc1)C(=O)O [Example 680]  inhibition at 10 µM               58
2  CSCC[C@H](NC(=O)c1ccc(CN[C@H](CC2CCCCC2)[C@H](O)[C@H](O)CC(C)C)cc1-c1ccccc1)C(=O)O [Example 715]  inhibition at 10 µM               67
3  CSCC[C@H](NC(=O)c1ccc(CNCCN2CCOCC2)cc1-c1ccccc1)C(=O)O [Example 365]  inhibition at 10 µM               97

Quote inhibition at 10 µM reported for CSCC[C@H](NC(=O)c1ccc(CNc2cc(C)ns2)cc1-c1ccccc1)C(=O)O [Example 373] please.
76

State its inhibition at 10 µM: CSCC[C@H](NC(=O)c1ccc(CNc2ccc(C3CCCCC3)cc2)cc1-c1ccccc1)C(=O)O [Example 699]
74

Please indicate inhibition at 10 µM recorded for C=C[C@@H](CC1CCCCC1)NCc1ccc(C(=O)N[C@@H](CCSC)C(=O)O)c(-c2ccccc2)c1 [Example 664]
75

Write down inhibition at 10 µM measured for item CSCC[C@H](NC(=O)c1ccc(CNc2cccc(C)c2)cc1-c1ccccc1)C(=O)O [Example 674]
40

Fill in inhibition at 10 µM for record CSCC[C@H](NC(=O)c1ccc(NC(=O)c2cccc(N(C)C)c2)cc1-c1ccccc1)C(=O)O [Example 752]
58
